Molecular target: T1, ECF11_987
T1 chain: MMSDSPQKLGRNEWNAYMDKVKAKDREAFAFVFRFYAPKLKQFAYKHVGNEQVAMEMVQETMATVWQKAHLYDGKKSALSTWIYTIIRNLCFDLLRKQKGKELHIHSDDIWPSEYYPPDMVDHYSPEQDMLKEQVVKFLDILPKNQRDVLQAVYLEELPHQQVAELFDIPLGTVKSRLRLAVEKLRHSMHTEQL
measured.endpoint: fold repression
Lab note: record the figure alone, no unit after it.

Reference set, count: 5
Data request, read-out fold repression, for AS03_1244 (protein) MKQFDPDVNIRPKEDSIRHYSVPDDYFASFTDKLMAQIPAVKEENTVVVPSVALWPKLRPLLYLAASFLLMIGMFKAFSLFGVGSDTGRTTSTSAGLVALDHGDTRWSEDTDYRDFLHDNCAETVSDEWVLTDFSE
2.14

Data request, read-out fold repression, for AS04_1609 (protein) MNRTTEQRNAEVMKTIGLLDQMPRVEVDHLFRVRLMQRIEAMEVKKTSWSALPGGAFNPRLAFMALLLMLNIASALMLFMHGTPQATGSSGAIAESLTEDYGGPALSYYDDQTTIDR
6.21

Data request, read-out fold repression, for AS27_1331 (protein) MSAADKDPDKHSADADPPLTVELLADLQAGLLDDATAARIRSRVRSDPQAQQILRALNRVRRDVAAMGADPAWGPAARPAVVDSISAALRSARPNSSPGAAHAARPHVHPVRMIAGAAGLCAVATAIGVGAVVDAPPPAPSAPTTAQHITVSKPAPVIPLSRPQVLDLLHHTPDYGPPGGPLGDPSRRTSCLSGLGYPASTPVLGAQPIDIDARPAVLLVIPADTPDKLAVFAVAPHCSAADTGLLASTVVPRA
5.69

Data request, read-out fold repression, for AS33_423 (protein) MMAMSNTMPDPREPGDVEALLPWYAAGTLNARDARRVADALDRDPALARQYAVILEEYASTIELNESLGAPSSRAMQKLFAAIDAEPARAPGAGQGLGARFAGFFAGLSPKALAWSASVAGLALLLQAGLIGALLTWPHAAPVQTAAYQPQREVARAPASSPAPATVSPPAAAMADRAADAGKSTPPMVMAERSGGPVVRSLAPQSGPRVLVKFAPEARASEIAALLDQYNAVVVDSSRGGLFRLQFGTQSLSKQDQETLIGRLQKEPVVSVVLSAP
13.7

Data request, read-out fold repression, for AS25_1645 (protein) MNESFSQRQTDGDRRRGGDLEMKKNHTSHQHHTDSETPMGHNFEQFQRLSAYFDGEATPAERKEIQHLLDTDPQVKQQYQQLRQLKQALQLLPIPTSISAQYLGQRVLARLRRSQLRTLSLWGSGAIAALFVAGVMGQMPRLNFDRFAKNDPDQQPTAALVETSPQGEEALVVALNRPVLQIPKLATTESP
8.87

Next item in the queue.
Data request, read-out fold repression, for AS22_1147 (protein) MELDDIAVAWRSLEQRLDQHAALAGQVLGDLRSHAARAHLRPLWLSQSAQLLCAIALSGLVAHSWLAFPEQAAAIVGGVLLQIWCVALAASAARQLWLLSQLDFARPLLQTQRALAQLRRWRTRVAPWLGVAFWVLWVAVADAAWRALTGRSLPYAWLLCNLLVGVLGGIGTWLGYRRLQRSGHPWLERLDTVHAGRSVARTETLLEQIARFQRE
3.16
